Tested on: P. falciparum stage V gametocytes
Set-up: BacTiter-Glo ATP luminescence viability of purified stage V gametocytes in 384-well plates, per cent inhibition versus DMSO
appliedConditions: 48 h, 5 µM; inhibitor
Hit rate of the full screen: of about 13,000 compounds, about 3,200 (25%) showed an effect of 50% or more. The list shows a part of the results.
readoutLabel: % Inhibition (%)
Note: unit % is implicit; provide only the numeric part.

The following compounds have reported results that may help.
{"columns": ["compound", "% Inhibition / %"],
 "data": [
  ["Cc1cc(OCCCN2CCC(NS(=O)(=O)c3ccc(Cl)c(Cl)c3)C2)c2ccccc2n1 (stereo not shown) [TCMDC-136282]", -6.813],
  ["O=C(Nc1ccc(OC2CCN(Cc3ccc(F)cc3)C2)cc1)c1cccs1 (stereo not shown) [TCMDC-133753]", 15.26],
  ["O=C(Nc1cccc(CN2CCN(Cc3cccc(O)c3)CC2)c1)c1cc2ccccc2s1 [TCMDC-134623]", -8.756]
]}

Q: Using the record for O=S(=O)(c1cccc(Cl)c1F)N(CCC(O)(C(F)(F)F)C(F)(F)F)Cc1cccc(O)c1 [TCMDC-133479] , report its % Inhibition.
A: 57.98

Q: Using the record for CCCC(=O)c1cnc2c(I)cccc2c1Nc1ccccc1C [TCMDC-138960] , report its % Inhibition.
A: -3.378

Q: Using the record for Cc1cccc2[nH]c(-c3ccc(-c4cccc(NC(=O)Nc5ccc(F)c(F)c5F)c4)cc3)nc12 [TCMDC-133234] , report its % Inhibition.
A: -5.873

Q: Using the record for CCCCCn1c(Sc2ccc(C#N)c([N+](=O)[O-])c2)nnc1-c1ccccc1 [TCMDC-135606] , report its % Inhibition.
A: 38.34

Q: Using the record for O=S(=O)(c1cc2ccccc2s1)N(CCC(O)(C(F)(F)F)C(F)(F)F)Cc1cccc(O)c1 [TCMDC-133477] , report its % Inhibition.
A: 95.75
